target_of_assay: HIV-1 RT (Human immunodeficiency virus type 1 group M subtype B)
Construct: HIV-1 RT construct, containing p66 and protease coding regions in pT5M plasmid; His-tag (implied by cobalt-resin purification); made in house; host or cells: E. coli BL21(DE3)
assay_details: biochemical
Format: binding
measured_attribute: Kd (nM)
State the answer as a number, implicitly in nM.

QUERY: Param item = `CC(C)Nc1cccnc1N1CCN(C(=O)c2cc3cc(NS(C)(=O)=O)ccc3[nH]2)CC1` ; retrieve measured Kd.
RESULT: 617

---

target_of_assay: mutant fRT (FIVm; R133S, K134I, A137E, G138T and R141I in FIV p51) (Feline immunodeficiency virus, UniProt P16088, A293E/G294T/K290I/R289S/R297I)
Construct: The p66 subunit (residues 1–554) was cloned into pET22b; p51 subunit (residues 1–430) in pET28b (kan resistance, Novagen) with a thrombin-cleavable His-tag at the N-terminus; His-tag (thrombin-cleavable) (N, cleaved yes)
assay_details: Microscale thermophoresis (MST) NNRTI binding affinity to p51-loop mutant FIV RT
measured_attribute: Kd

QUERY: Param item = `CC(C)Nc1cccnc1N1CCN(C(=O)c2cc3cc(NS(C)(=O)=O)ccc3[nH]2)CC1` ; retrieve measured Kd.
RESULT: 227 nM

QUERY: Another molecule: `Cc1cc(/C=C/C#N)cc(C)c1Nc1ccnc(Nc2ccc(C#N)cc2)n1`
RESULT: 368 nM
